# Tested on: NCI-H1522;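 further: growth inhibition of NCI-H1522 cells, read out with a cell viability assay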
# Experimental details: cells
# Type: functional, cell-based
# Condition context: Homo sapiens
# Description: SANGER: Inhibition of human NCI-H1522 cell growth in a cell viability assay.
pIC50: −log10 of the molar value.
Attribute measured: pIC50

Okay, here is my list. What is pIC50 for each of these?
1. CCn1c(-c2nonc2N)nc2cnc(Oc3cccc(NC(=O)c4ccc(OCCN5CCOCC5)cc4)c3)cc21 [GSK-269962A]
2. CC(C)=CC[C@@H](O)C1=CC(=O)c2c(O)ccc(O)c2C1=O
3. CCNc1cc(N[C@H]2CC[C@@H](O)CC2)nc(Nc2ccc3c(ccn3Cc3ccccc3)c2)n1

Reply:
< 5.60
6.28
< 5.29
